- assayed_system: Tau40 P301L protein (human)
- assay_protocol: cell-based or functional assay
Square brackets hold non-standard residues; d marks the D form. Primed or numbered codes have the meaning given here. Ends that are not written are not given here. PEG2′ = not defined here; Tam = not defined here
quantity_kind: IC50, Tau40 assay-Modified peptides (ThT) (µM)
Answers are plain numbers, in µM.

Recorded IC50, Tau40 assay-Modified peptides (ThT), per entry:
- Tam-RRRRRRRRRGGSGG[dW][dR][dL][dK][dV][dR][dW][dW] (reading uncertain; also: printed as Tam-RRRRRRRRR-GGSGG-wrlkvrww) [Tam-RRRRRRRRR-GGSGG-wrlkvrww]: 20.5
- Tam-YGRKKRRQRRRGGSGG[dW][dR][dL][dK][dV][dR][dW][dW] (reading uncertain) [Tam-[…]-GGSGG-wrlkvrww]: 6.6
- Tam-YGRKKRRQRRRGGSGG[dR][dL][dK][dV][dR][dW] (reading uncertain) [Tam-[…]-GGSGG-rlkvrw]: 6.6
- RRRRRRRRRGGSGG[dR][dL][dK][dV][dR][dW] [RRRRRRRRR-GGSGG-rlkvrw]: 6.07

Next binder, IC50, Tau40 assay-Modified peptides (ThT) to be filled in.
# IC50, Tau40 assay-Modified peptides (ThT) lookup, item {TAMRA5-PEG2′}-[dW][dR][dA][dK][dA][dR][dA][dW]-OH [TAMRA5-PEG2-wrakaraw-OH] 9.17
